target: Bcl-2 protein (histag-Bcl-2, UniProtKB P10415) (Homo sapiens (Human), UniProt P10415); experiment: Inhibition of Bcl-2 by the fluorescence polarisation technique; assay type: binding; conditions: fluorescence polarisation test; method A, or method B where underlined (underlining not visible); read-out: IC50 (nM) Bcl-2 FP
Sequence (P10415 whole entry): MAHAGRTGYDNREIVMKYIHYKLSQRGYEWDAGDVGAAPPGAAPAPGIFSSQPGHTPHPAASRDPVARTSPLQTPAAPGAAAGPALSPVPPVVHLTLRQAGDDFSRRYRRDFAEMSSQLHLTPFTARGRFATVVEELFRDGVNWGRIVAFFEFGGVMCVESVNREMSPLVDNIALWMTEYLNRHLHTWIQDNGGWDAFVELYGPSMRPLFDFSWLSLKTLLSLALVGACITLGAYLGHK
Structures can show the parent of a compound that is named as a salt.
Quick reference for IC50 among some compounds

COMPOUND	IC50 / nM
NC[C@@H]1Cc2ccccc2CN1C(=O)c1cc2c(cc1-n1cc(C(=O)N(c3ccccc3)c3ccc(O)cc3)c3ccccc31)OCO2	286
Cc1ccc(N(C(=O)c2cn(-c3cc4c(cc3C(=O)N3Cc5ccccc5C[C@H]3CN3CCN(C)CC3)OCO4)c3ccccc23)c2ccc3[nH]ncc3c2)cc1 [Example 68, hydrochloride]	79.7
NC[C@@H]1Cc2ccccc2CN1C(=O)c1cc(N)ccc1-n1nc(C(=O)N(c2ccccc2)c2ccccc2)c2ccccc21	52.2
Cl.Cn1ccc2cc(N(C(=O)c3cn(-c4cc5c(cc4C(=O)N4Cc6ccccc6C[C@H]4CN4CCOCC4)OCO5)c4c3CCCC4)c3ccc(O)cc3)cnc21 [Example 207, hydrochloride]	20.3
Cc1cc(C(=O)N(c2ccccc2)c2ccc(O)cc2)cn1-c1cc(C(F)(F)F)ccc1C(=O)N1Cc2ccccc2C[C@H]1CN(C)C	120
Cc1cc(C(=O)N(c2ccc(O)cc2)c2cccc(N3CCN(C)CC3)c2)cn1-c1cc2c(cc1C(=O)N1Cc3ccccc3C[C@H]1C)OCO2 [Example 112, hydrochloride]	11.8
CN1CCN(C[C@@H]2Cc3ccccc3CN2C(=O)c2cc3c(cc2-n2cc(C(=O)N(CCc4ccccc4)c4ccc(O)cc4)c4ccccc42)OCO3)CC1	7.8
Cc1cc(C(=O)N(c2ccc(O)cc2)c2ccc3[nH]ccc3c2)cn1-c1cc(Br)ccc1C(=O)N1Cc2ccccc2C[C@H]1CN1CCN(C2CCC2)CC1	8.4
Cc1ccc(N(C(=O)c2cn(-c3cc(Cl)ccc3C(=O)N3Cc4ccccc4C[C@H]3CN3CCN(C)CC3)c3ccccc23)c2ccc(O)cc2)cc1	4.2
CN1CCN(C[C@@H]2Cc3ccccc3CN2C(=O)c2ccc(Br)cc2-n2cc(C(=O)N(c3ccc(O)cc3)c3ccc(O)cc3)c3ccccc32)CC1	20
Cc1ccc(N(C(=O)c2cn(-c3cc4c(cc3C(=O)N3Cc5ccccc5C[C@H]3CN3CCN(C)CC3)OCO4)c3ccccc23)c2ccc(O)cc2)cc1	3.5
CCCCN(C(=O)c1cn(-c2cc(OC)c(O)cc2C(=O)N2Cc3ccccc3C[C@H]2CN2CCN(C)CC2)c2ccccc12)c1ccccc1 [Example 194, dihydrochloride]	6.7
O=C(c1cn(-c2cc(Cl)ccc2C(=O)N2Cc3ccccc3C[C@H]2CN2CCOCC2)c2ccccc12)N(c1ccccc1)c1ccc(O)cc1 [Example 186, hydrochloride]	23.5
COc1ccc(C(=O)N2Cc3ccccc3C[C@H]2CN)c(-n2nc(C(=O)N(c3ccccc3)c3ccccc3)c3ccccc32)c1	51
NC[C@@H]1Cc2ccccc2CN1C(=O)c1ccccc1-n1cc(C(=O)N(c2ccccc2)c2ccc(O)cc2)c2ccccc21	18.9
Cc1cc(C(=O)N(c2ccccc2)c2ccc(O)cc2)cn1-c1cc2c(cc1C(=O)N1Cc3ccccc3C[C@H]1CN1CCOCC1)OCO2 [Example 108, hydrochloride]	35.5
Cc1cc(C(=O)N(c2ccc(O)cc2)c2ccc3c(ccn3CCN3CCOCC3)c2)cn1-c1cc2c(cc1C(=O)N1Cc3ccccc3C[C@H]1C)OCO2 [Example 116, hydrochloride]	12.1
CN1CCN(C[C@@H]2Cc3ccccc3CN2C(=O)c2cc3c(cc2-n2cc(C(=O)N(c4ccc(O)cc4)c4ccc(F)c(F)c4)c4ccccc42)OCO3)CC1	5
CN1CCN(C[C@@H]2Cc3ccccc3CN2C(=O)c2cc3c(cc2-n2cc(C(=O)N(c4ccccc4)c4ccc(O)cc4)c4ccccc42)OC[C@H](COCc2ccccc2)O3)CC1	16.8
CN1CCN(C[C@@H]2Cc3ccccc3CN2C(=O)c2cc3c(cc2-n2cc(C(=O)N(c4ccc(O)cc4)c4ccc(F)c(Cl)c4)c4ccccc42)OCO3)CC1 [Example 58, hydrochloride]	20.5
CCCCN(C(=O)c1cn(-c2cc3c(cc2C(=O)N2Cc4ccccc4C[C@H]2CN2CCN(C)CC2)OCO3)c2ccccc12)c1ccc(O)cc1	4.4
CCCCN(CCCC)C(=O)c1cn(-c2ccc(NC(=O)CSc3ccccc3)cc2C(=O)N2Cc3ccccc3C[C@H]2CN2CCN(C)CC2)c2ccccc12	57.7
Cc1cc(C(=O)N(c2ccccc2)c2ccc(O)cc2)cn1-c1cc(F)ccc1C(=O)N1Cc2ccccc2C[C@H]1CN(C)C	24.8
Cc1cc(C(=O)N(c2ccc(O)cc2)c2ccc3[nH]ccc3c2)cn1-c1cc(Br)ccc1C(=O)N1Cc2ccccc2C[C@H]1CN1CCC(F)(F)CC1	85.5
Cc1cc(C(=O)N(c2ccccc2)c2ccc(O)cc2)cn1-c1cc(Cl)ccc1C(=O)N1Cc2ccccc2C[C@H]1CN(C)C	16.2

----------
molecular target: Bcl-2 protein (histag-Bcl-2, UniProtKB P10415) (Homo sapiens (Human), UniProt P10415); assay: Inhibition of Bcl-2 by the fluorescence polarisation technique; type: binding; conditions: fluorescence polarisation test; method A, or method B where underlined (underlining not visible); read-out: IC50 (nM) Bcl-2 FP
Counter-ions that a name gives are not always drawn.
QUANTITY_MEASURED: IC50 (nM)

MOLECULE	OBSERVED_MEASUREMENT
O=C(c1cn(-c2cc3c(cc2C(=O)N2Cc4ccccc4C[C@H]2CN2CCOCC2)OCO3)c2c1CCCC2)N(c1ccccc1)c1ccc(O)cc1 [Example 113, hydrochloride]	19.2
COc1cc(-n2cc(C(=O)N(c3ccccc3)c3ccc(C)cc3)c3ccccc32)c(C(=O)N2Cc3ccccc3C[C@H]2CN2CCN(C)CC2)cc1O	5.6
Cc1cc(C(=O)N(c2ccc(O)cc2)c2cnc3c(ccn3C)c2)cn1-c1cc2c(cc1C(=O)N1Cc3ccccc3C[C@H]1CN1CCOCC1)OCO2 [Example 206, hydrochloride]	16.7

----------
test system: RS4;11 leukaemia tumour line; assay: In vitro cytotoxicity, Microculture Tetrazolium Assay (MTT); type: cell-based; settings: Homo sapiens; RS4;11 cells, 48 hours exposure
In this section we review reported IC50 values for a set of molecules.
QUANTITY_MEASURED: IC50 (nM)

> print(dat)
                                 cpd.smiles  quantity.measured  readout.units  observed.measurement
1  NC[C@@H]1Cc2ccccc2CN1C(=O)c1cc2c(cc1-n1nc(C(=O)N(c3ccccc3)c3ccccc3)c3ccccc31)OCO2               IC50             nM                  1860
2  COc1cc(-n2nc(C(=O)N(c3ccccc3)c3ccccc3)c3ccccc32)c(C(=O)N2Cc3ccccc3C[C@H]2CN)cc1N               IC50             nM                  2160
3  CCn1ccc2cc(N(C(=O)c3cn(-c4cc5c(cc4C(=O)N4Cc6ccccc6C[C@H]4CN4CCN(C)CC4)OCO5)c4ccccc34)c3ccc(O)cc3)ccc21               IC50             nM                  41.7

----------
target: Bcl-2 protein (histag-Bcl-2, UniProtKB P10415) (Homo sapiens (Human), UniProt P10415); test: Inhibition of Bcl-2 by the fluorescence polarisation technique; assay type: binding; conditions: fluorescence polarisation test; method A, or method B where underlined (underlining not visible); read-out: IC50 (nM) Bcl-2 FP
Each entry below lists one item and its recorded IC50 value.
QUANTITY_MEASURED: IC50 (nM)

> print(dat)
                                   compound  observed.measurement
1  CN1CCN(C[C@@H]2Cc3ccccc3CN2C(=O)c2cc3c(cc2-n2cc(C(=O)N(c4ccc(O)cc4)c4ccc(OC(F)(F)F)cc4)c4ccccc42)OCO3)CC1 [Example 51]                   6.9
2  NC[C@@H]1Cc2ccccc2CN1C(=O)c1ccccc1-n1nc(C(=O)N(c2ccccc2)c2ccccc2)c2ccc(C(=O)O)cc21 [Example 133]                   841
3  Cc1cc(C(=O)N(c2ccccc2)c2ccc(O)cc2)cn1-c1ccc(Cl)cc1C(=O)N1Cc2ccccc2C[C@H]1CN1CCN(C)CC1 [Example 25]                  87.6

----------
target: Bcl-2 protein (histag-Bcl-2, UniProtKB P10415) (Homo sapiens (Human), UniProt P10415); experiment: Inhibition of Bcl-2 by the fluorescence polarisation technique; assay type: binding; conditions: fluorescence polarisation test; method A, or method B where underlined (underlining not visible); read-out: IC50 (nM) Bcl-2 FP
Structures can show the parent of a compound that is named as a salt.
QUANTITY_MEASURED: IC50 (nM)

> print(dat)
                                   compound  observed.measurement
1  Cc1cc(C(=O)N(c2ccc(O)cc2)c2ccc3c(ccn3C)c2)cn1-c1cc2occc2cc1C(=O)N1Cc2ccccc2C[C@H]1CN1CCOCC1 [Example 119, hydrochloride]                  28.4
2  Cc1cc(C(=O)N(c2ccccc2)c2ccccc2)cn1-c1ccccc1C(=O)N1Cc2ccccc2C[C@H]1CN [Example 5, trifluoroacetate]                   213
3  Cc1cc(C(=O)N(c2ccc(O)cc2)c2ccc3c(c2)CCN3C)cn1-c1cc2c(cc1C(=O)N1Cc3ccccc3C[C@H]1C)OCO2 [Example 115, hydrochloride]                  14.5
